Tested on: NCI-H23 lung
test.details: NCI tumour cell line growth inhibition, 48 h
Overview of reported TGI across a group of molecules:

Study these solved cases before continuing.
- molecule: "C=C(Cl)C(=CCl)CCC(Br)C(C)(C)Cl (mixture of isomers)"
  result: "> 10 µM"
- molecule: "C=CCCON(C(=O)OC(C)(C)C)C(C)(C)C"
  result: "> 100 µM"
- molecule: "CSC1=Nc2c(c(C)c(C)n2COC(CO)CO)C2=NC(=O)C(C)N12 (centres undefined)"
  result: "> 100 µM"

Lab note: next molecule to report on.
Report TGI for O=C1CCC(Cl)=CC2CCCN12 (centres undefined) please.
> 100 µM

---

Test system: COLO 205 colon
test.details: NCI tumour cell line growth inhibition, 48 h
Overview of reported TGI across a group of compounds:

Study these solved cases before continuing.
- compound: "CC(C)NC(=O)OCc1c(COC(=O)NC(C)C)c(-c2cc[n+](COC(=O)C3CC3)cc2)n2c1CCC2"
  result: "> 100 µM"
- compound: "N#CC1C(=S)NC(c2ccccc2)=CC12CCCCC2 (configuration not stated)"
  result: "> 100 µM"
- compound: "CCCCCCNc1n[nH]c(=O)c2c1nnn2Cc1ccccc1"
  result: "> 100 µM"

Lab note: next compound to report on.
# query: TGI | item CC(C)(C)OC(=O)NC1CCCCC1NC(=O)C(=O)NC1CCCCC1NC(=O)OC(C)(C)C (configuration not stated) | system: COLO 205 colon
> 100 µM

---

Test system: UACC-62 melanoma
test.details: NCI tumour cell line growth inhibition, 48 h
reported.endpoint: TGI

- molecule: "Cc1ccc(S(=O)(=O)N(C=O)N=C2CCN(Cc3ccccc3)CC2)cc1"
  TGI: "> 100 µM"
- molecule: "CCOC(=O)NC(Nc1ccc(C)cc1)(C(F)(F)F)C(F)(F)F"
  TGI: "> 100 µM"
- molecule: "CC1=C(C(=O)Nc2ccc(F)c(Cl)c2)C(c2ccccc2O)NC(=S)N1 (stereo not given)"
  TGI: "> 50 µM"
- molecule: "C/C=C/C(CC(O)(C(F)(F)F)C(F)(F)F)=N/NC(N)=S"
  TGI: "> 10 µM"
- molecule: "Cc1c2n(c(=O)[nH]c1=O)C1OC(CO)C(O2)C1O (stereo not given)"
  TGI: "> 100 µM"
- molecule: "O=c1cc[nH]c(=O)[nH]1"
  TGI: "> 1000 µM"
- molecule: "C=C(Cl)C(=CCl)CCC(Br)C(C)(C)Cl (mixture of isomers)"
  TGI: "> 10 µM"
- molecule: "O=C(CCN(C(=O)O)S(=O)(=O)c1ccc(NC(=O)c2ccccc2)cc1)Nc1ccccc1"
  TGI: "97.5 µM"

Report TGI for `COc1cccc(CCNC(=O)Cc2ccccc2CCO)c1` please.
> 100 µM

Report TGI for `Oc1ccc(Nc2ncnc3c2sc2ncccc23)cc1` please.
46.1 µM

Report TGI for `CCN(CC)Cc1ccc(C(=S)Nc2ccc(Cl)cc2)s1` please.
23 µM

---

Overview of reported TGI across a group of molecules:
Test system: OVCAR-8 ovarian
test.details: NCI tumour cell line growth inhibition, 48 h

Study these solved cases before continuing.
- molecule: "CC(C)Cc1ccc(C(C)C(=O)N2CCN(/C=C/c3ccccc3)CC2)cc1 (configuration not stated)"
  TGI: "29.1 µM"
- molecule: "NC(N)=NCCN1CC2CCC(CC2)C1"
  TGI: "> 100 µM"
- molecule: "COC(=O)C(C(=O)c1ccccc1)C(C(=O)C(=O)Nc1ccc(OC)cc1OC)C(=O)C(=O)c1ccc(C)cc1 (configuration not stated)"
  TGI: "> 100 µM"
- molecule: "CCN(CC)CCNc1ccc2nnn3c4ccc(OCCN(CC)CC)cc4c(=O)c1c23"
  TGI: "> 100 µM"
- molecule: "Cn1c(=O)c2c(ncn2CCNC(CO)C(O)c2ccc([N+](=O)[O-])cc2)n(C)c1=O (configuration not stated)"
  TGI: "> 100 µM"
- molecule: "COc1ccc(Sc2[nH]c(C(C)=O)c3ccccc23)cc1"
  TGI: "36.8 µM"
- molecule: "[N-]=[N+]=Nc1c([N+](=O)[O-])c(=O)n(-c2ccccc2)c2ccccc12"
  TGI: "48.9 µM"
- molecule: "O=c1cc[nH]c(=O)[nH]1"
  TGI: "> 1000 µM"
- molecule: "CCCC(=O)OCC1OC(n2ccc(N)nc2=O)C(OC(=O)CCC)C1OC(=O)CCC (configuration not stated)"
  TGI: "> 100 µM"
- molecule: "C=C(Cl)C(=CCl)CCC(Br)C(C)(C)Cl (mixture of isomers)"
  TGI: "> 10 µM"

Report TGI for `Cc1cc(C)c2c(n1)sc1c(Nc3ccc(Cl)cc3)ncnc12` please.
> 100 µM

Report TGI for `CO[C@@]12C[C@@H](C)C3=CCC(C)=C3CC1=C(C)C(=O)O2` please.
> 100 µM

Report TGI for `CC(=O)Nc1ccc(N=Nc2c(O)c(S(=O)(=O)O)cc3cc(S(=O)(=O)O)ccc23)cc1` please.
> 100 µM
